Target: STK16 (human) (UniProt O75716)
Sequence (O75716 whole entry, looked up): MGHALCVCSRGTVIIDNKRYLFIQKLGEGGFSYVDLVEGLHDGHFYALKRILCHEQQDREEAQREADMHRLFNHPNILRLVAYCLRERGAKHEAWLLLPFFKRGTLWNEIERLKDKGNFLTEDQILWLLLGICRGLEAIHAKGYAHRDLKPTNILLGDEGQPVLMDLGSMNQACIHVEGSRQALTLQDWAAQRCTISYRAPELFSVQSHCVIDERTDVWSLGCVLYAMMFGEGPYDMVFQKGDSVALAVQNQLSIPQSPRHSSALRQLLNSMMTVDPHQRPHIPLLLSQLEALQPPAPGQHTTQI
Experiment: radiometric filter-binding kinase assay, Kinase HotSpot
Conditions: compound 0.5 µM; ATP 10 µM
readout_type: residual activity (%)
Note: unit % is implicit; provide only the numeric part.

- smi: "COc1cc2nccc(Oc3ccc(NC(=S)NC(=O)c4ccccc4C)cc3)c2cc1OC"
  measured_number: 101
- smi: "CCCNC(=O)Nc1ccc(Oc2ncnc3cc(OC)c(OC)cc23)cc1Cl"
  measured_number: 93.4
- smi: "Nc1nc(Nc2ccc(S(N)(=O)=O)cc2)nn1C(=O)c1c(F)cccc1F"
  measured_number: 48.5
- smi: "CC(C)[C@H](CO)Nc1nc(Nc2cccc(Cl)c2)c2ncn(C(C)C)c2n1"
  measured_number: 102
- smi: "Nc1n[nH]c2nnc(-c3c(-c4ccccc4)nn4ccccc34)cc12"
  measured_number: 108
- smi: "Cc1ccc(NC(=O)c2ccc(CN3CCN(C)CC3)cc2)cc1Nc1nc(-c2cccnc2)cs1"
  measured_number: 103

Exam item: Look at this molecule and give its reported residual activity. `O=C1Nc2cc(Br)ccc2/C1=C1/Nc2ccccc2/C1=N\O`
Marked response: 64

Exam item: // query: `COc1cc2ncnc(Nc3ccc(F)c(Cl)c3)c2cc1OCCCN1CCOCC1`
Marked response: 96.8

Exam item: // query: `CC(C)n1cnc2c(Nc3cccc(Cl)c3)nc(NCCO)nc21`
Marked response: 89.8

Exam item: // query: `Oc1ccc(-c2nc(-c3ccc(F)cc3)c(-c3ccncc3)[nH]2)cc1`
Marked response: 111

----------
A collection of compounds and their measured residual activity
Biological target: MAP3K3 (human) (UniProt Q99759)
Sequence (Q99759 whole entry, looked up): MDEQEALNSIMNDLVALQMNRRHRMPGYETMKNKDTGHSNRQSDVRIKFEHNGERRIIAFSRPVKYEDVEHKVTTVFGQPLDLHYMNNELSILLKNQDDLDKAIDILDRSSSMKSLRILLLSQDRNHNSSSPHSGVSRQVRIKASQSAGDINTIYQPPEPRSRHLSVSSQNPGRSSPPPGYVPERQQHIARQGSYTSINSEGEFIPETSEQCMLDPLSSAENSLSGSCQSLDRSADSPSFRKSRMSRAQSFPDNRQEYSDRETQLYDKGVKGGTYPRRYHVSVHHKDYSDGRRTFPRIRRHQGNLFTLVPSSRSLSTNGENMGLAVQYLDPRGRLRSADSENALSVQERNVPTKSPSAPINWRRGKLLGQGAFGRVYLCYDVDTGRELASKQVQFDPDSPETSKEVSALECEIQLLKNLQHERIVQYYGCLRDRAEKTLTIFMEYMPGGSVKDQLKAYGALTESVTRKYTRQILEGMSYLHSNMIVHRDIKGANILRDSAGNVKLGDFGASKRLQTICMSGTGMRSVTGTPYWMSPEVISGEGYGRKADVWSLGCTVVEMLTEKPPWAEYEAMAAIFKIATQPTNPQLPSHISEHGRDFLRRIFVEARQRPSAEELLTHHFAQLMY
Assay: radiometric filter-binding kinase assay, Kinase HotSpot
Settings: compound 0.5 µM; ATP 10 µM
Note: unit % is implicit; provide only the numeric part.

Known residual activity results, listed for orientation:
- compound: "Cc1ccc(NC(=O)c2ccc(CN3CCN(C)CC3)cc2)cc1Nc1nc(-c2cccnc2)cs1"
  unit_spec: "%"
  measured_number: 108
- compound: "O=C(Nc1ccc(Cl)cc1)c1ccccc1NCc1ccncc1"
  unit_spec: "%"
  measured_number: 96.2

Exam item: Look at this compound and give its reported residual activity. O=C(NC(NC(=S)Nc1ccc(F)c([N+](=O)[O-])c1)C(Cl)(Cl)Cl)C(c1ccccc1)c1ccccc1 (stereo not given)
Marked response: 118

Exam item: // query: `COc1ccc(-c2cnc3c(-c4ccsc4)cnn3c2)cc1`
Marked response: 99.4

Exam item: // query: `O=c1cc(-c2cccc3c2Sc2ccccc2S3)oc(N2CCOCC2)c1`
Marked response: 137

Exam item: // query: `Nc1n[nH]c2nnc(-c3c(-c4ccccc4)nn4ccccc34)cc12`
Marked response: 110

Exam item: // query: `O=C1Cc2c([nH]c3ccc([N+](=O)[O-])cc23)-c2ccccc2N1`
Marked response: 100

Exam item: // query: `Clc1ccc(Nc2nnc(Cc3ccncc3)c3ccccc23)cc1`
Marked response: 118

Exam item: // query: `CC(C)(C)c1nc2c3ccc(F)cc3c3c(=O)[nH]ccc3c2[nH]1`
Marked response: 61.1

Exam item: // query: `Nc1nc(Nc2ccc(S(N)(=O)=O)cc2)nn1C(=S)Nc1c(F)cccc1F`
Marked response: 5.41

----------
A collection of compounds and their measured residual activity
Target: ABL1 (human) (UniProt P00519)
Sequence (P00519 whole entry, looked up): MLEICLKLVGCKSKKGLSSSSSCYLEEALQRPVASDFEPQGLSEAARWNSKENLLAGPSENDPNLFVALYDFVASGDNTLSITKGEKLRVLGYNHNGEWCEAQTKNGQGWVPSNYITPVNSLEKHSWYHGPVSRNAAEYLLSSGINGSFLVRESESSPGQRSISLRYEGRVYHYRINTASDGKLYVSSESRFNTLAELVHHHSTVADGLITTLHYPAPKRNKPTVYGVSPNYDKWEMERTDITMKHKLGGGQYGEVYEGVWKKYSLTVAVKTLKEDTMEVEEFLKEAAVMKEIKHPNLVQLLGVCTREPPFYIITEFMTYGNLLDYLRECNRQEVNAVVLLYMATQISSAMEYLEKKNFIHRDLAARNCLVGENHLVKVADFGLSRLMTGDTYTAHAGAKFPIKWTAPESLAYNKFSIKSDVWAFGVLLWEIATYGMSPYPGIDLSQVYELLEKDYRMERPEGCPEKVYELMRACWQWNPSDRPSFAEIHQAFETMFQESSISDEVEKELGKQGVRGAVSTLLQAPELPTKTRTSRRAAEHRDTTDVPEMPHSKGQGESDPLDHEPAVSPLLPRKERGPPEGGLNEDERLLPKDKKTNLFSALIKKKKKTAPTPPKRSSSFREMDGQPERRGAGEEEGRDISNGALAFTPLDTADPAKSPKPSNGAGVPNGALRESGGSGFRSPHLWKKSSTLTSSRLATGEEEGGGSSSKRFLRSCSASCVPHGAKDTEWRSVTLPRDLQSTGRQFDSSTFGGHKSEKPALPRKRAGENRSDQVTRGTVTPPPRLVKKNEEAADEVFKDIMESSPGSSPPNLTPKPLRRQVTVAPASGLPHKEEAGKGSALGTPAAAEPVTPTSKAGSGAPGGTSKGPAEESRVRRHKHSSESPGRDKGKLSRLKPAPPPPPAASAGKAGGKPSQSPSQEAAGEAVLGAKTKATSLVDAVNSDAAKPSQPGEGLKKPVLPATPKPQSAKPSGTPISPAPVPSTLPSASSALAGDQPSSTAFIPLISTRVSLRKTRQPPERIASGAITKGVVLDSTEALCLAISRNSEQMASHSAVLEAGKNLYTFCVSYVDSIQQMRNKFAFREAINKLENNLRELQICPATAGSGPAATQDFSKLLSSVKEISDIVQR
Assay: radiometric filter-binding kinase assay, Kinase HotSpot
Settings: compound 0.5 µM; ATP 10 µM
State the value with its unit after it.

- compound: "CCCNC(=O)Nc1ccc(Oc2ncnc3cc(OC)c(OC)cc23)cc1Cl"
  residual activity: "89%"
- compound: "O=C(NC(NC(=S)Nc1ccc(F)c([N+](=O)[O-])c1)C(Cl)(Cl)Cl)C(c1ccccc1)c1ccccc1 (stereo unspecified)"
  residual activity: "101%"
- compound: "Cc1ccc(NC(=O)c2ccc(CN3CCN(C)CC3)cc2)cc1Nc1nc(-c2cccnc2)cs1"
  residual activity: "49.8%"

Exam item: Look at this compound and give its reported residual activity. CS(=O)c1ccc(-c2nc(-c3ccc(F)cc3)c(-c3ccncc3)[nH]2)cc1 (stereo unspecified)
Marked response: 97%

Exam item: // query: `Nc1nc(Nc2ccc(S(N)(=O)=O)cc2)nn1C(=S)Nc1c(F)cccc1F`
Marked response: 4.96%

Exam item: // query: `CC(C)(C)c1nc2c3ccc(F)cc3c3c(=O)[nH]ccc3c2[nH]1`
Marked response: 98.4%

Exam item: // query: `Nc1n[nH]c2nnc(-c3c(-c4ccccc4)nn4ccccc34)cc12`
Marked response: 83.3%

Exam item: // query: `CCN1/C(=C/C(C)=O)Sc2ccc(OC)cc21`
Marked response: 92.9%

Exam item: // query: `O=C1Cc2c([nH]c3ccc([N+](=O)[O-])cc23)-c2ccccc2N1`
Marked response: 57.7%

Exam item: // query: `O=C(Nc1ccc(Cl)cc1)c1ccccc1NCc1ccncc1`
Marked response: 99.7%

Exam item: // query: `COc1ccc(-c2cnc3c(-c4ccsc4)cnn3c2)cc1`
Marked response: 72.9%

Exam item: // query: `CC(C)n1cnc2c(Nc3cccc(Cl)c3)nc(NCCO)nc21`
Marked response: 73.3%

Exam item: // query: `Cc1cc2ncc(-c3ccccc3)nc2cc1C`
Marked response: 99.6%

Exam item: // query: CSc1nc(-c2ccc(F)cc2)c(-c2ccnc(NC(C)c3ccccc3)c2)[nH]1 (stereo unspecified)
Marked response: 103%

Exam item: // query: `NC(=O)c1ccc(N(C(N)=O)c2c(F)cccc2F)nc1-c1ccc(F)cc1F`
Marked response: 99.7%

Exam item: // query: `Clc1ccc(Nc2nnc(Cc3ccncc3)c3ccccc23)cc1`
Marked response: 96.5%

Exam item: // query: `CC(C)[C@H](CO)Nc1nc(Nc2cccc(Cl)c2)c2ncn(C(C)C)c2n1`
Marked response: 75.6%

Exam item: // query: `O=c1cc(N2CCNCC2)oc2c(-c3ccccc3)cccc12`
Marked response: 110%

Exam item: // query: `O=C1Nc2ccccc2/C1=C\c1c(Cl)[nH]c2ccccc12`
Marked response: 95.2%

Exam item: // query: `COc1cc2nccc(Oc3ccc(NC(=S)NC(=O)c4ccccc4C)cc3)c2cc1OC`
Marked response: 50.6%

Exam item: // query: `O=c1cc(-c2cccc3c2Sc2ccccc2S3)oc(N2CCOCC2)c1`
Marked response: 99.5%

FYI, the data here is from the kinase profiling compilation of Christmann-Franck et al. (2016).
